These data points were gathered from patent US20240041042A1.

test system: Zea mays (ZEAMX); assay type: in vivo; details: crop plant compatibility, 80 g/ha, effect vs untreated controls
Items are presented alongside their recorded Post-emergence action against ZEAMX in %.

- molecule: "COC(=O)[C@@H](C)Oc1nn(-c2ncccc2F)c(-c2cccnc2)c1Br [Example I-03]"
  system: "Zea mays (ZEAMX)"
  Post-emergence action against ZEAMX in % / %: 0
- molecule: "CCOC(=O)COc1nn(-c2cccnc2C)c(-c2ccc(F)nc2)c1Br [II-46]"
  system: "Zea mays (ZEAMX)"
  Post-emergence action against ZEAMX in % / %: 0
- molecule: "O=C(O)COc1nn(-c2ncccc2F)c(-c2ccc(F)nc2)c1C1CC1 [Example I-43]"
  system: "Zea mays (ZEAMX)"
  Post-emergence action against ZEAMX in % / %: 10
- molecule: "O=C(O)COc1nn(-c2nc(F)ccc2F)c(-c2ccc(F)nc2)c1C1CC1 [Example I-302]"
  system: "Zea mays (ZEAMX)"
  Post-emergence action against ZEAMX in % / %: 0
- molecule: "COC(=O)[C@@H](C)Oc1nn(-c2ncccc2F)c(-c2ccnc(F)c2)c1I [Example I-138]"
  system: "Zea mays (ZEAMX)"
  Post-emergence action against ZEAMX in % / %: 20
- molecule: "O=C(O)COc1nn(-c2nc(F)ccc2F)c(-c2ccc(F)nc2)c1Br [Example I-334]"
  system: "Zea mays (ZEAMX)"
  Post-emergence action against ZEAMX in % / %: 10
- molecule: "CCOC(=O)COc1nn(-c2ncccc2C(F)(F)F)c(-c2ccc(F)nc2)c1Br [Example I-335]"
  system: "Zea mays (ZEAMX)"
  Post-emergence action against ZEAMX in % / %: 0

====

Parameter Post-emergence action against ZEAMX in %: see the listing below.
Test system: Zea mays (ZEAMX)
Format: in vivo
Details: crop plant compatibility, 80 g/ha, effect vs untreated controls
Description: Seeds of monocotyledonous and dicotyledonous weeds and crop plants are placed in sandy loam in plastic or organic planting pots, covered with soil and cultivated in a greenhouse under controlled growth conditions. 2 to 3 weeks after sowing, the test plants are treated at the one-leaf stage. […]

- chemical_string: "COCCOC(=O)COc1nn(-c2cccnc2C)c(-c2cncc(F)c2)c1Br"
  Post-emergence action against ZEAMX in % / %: 0
- chemical_string: "COC(=O)CCOC(=O)COc1nn(-c2ncccc2F)c(-c2ccc(F)nc2)c1Cl"
  Post-emergence action against ZEAMX in % / %: 10
- chemical_string: "CCOC(=O)COc1nn(-c2ncccc2F)c(-c2ccnc(F)c2)c1I"
  Post-emergence action against ZEAMX in % / %: 0
- chemical_string: "O=C(CSc1nn(-c2ccccn2)c(-c2cncc(F)c2)c1Br)NS(=O)(=O)c1ccccc1"
  Post-emergence action against ZEAMX in % / %: 0
- chemical_string: "COC(=O)[C@H](C)NC(=O)COc1nn(-c2ccnc(Cl)c2)c(-c2ccc(F)nc2)c1Br"
  Post-emergence action against ZEAMX in % / %: 0

====

Test system: Viola tricolor (VIOTR)
Experiment: Post-emergence herbicidal action against VIOTR
Format: in vivo
Details: 320 g/ha
Method: Seeds of monocotyledonous and dicotyledonous weeds and crop plants are placed in sandy loam in plastic or organic planting pots, covered with soil and cultivated in a greenhouse under controlled growth conditions. 2 to 3 weeks after sowing, the test plants are treated at the one-leaf stage. […]

- compound: "CCOC(=O)COc1nn(-c2nc(F)ccc2F)c(-c2cncc(F)c2)c1C1CC1"
  Post-emergence action against VIOTR in %: "80%"
- compound: "C[C@@H](Oc1nn(-c2ncccc2F)c(-c2ccc(F)nc2)c1Br)C(=O)O"
  Post-emergence action against VIOTR in %: "80%"
- compound: "O=C(O)COc1nn(-c2nc(F)ccc2F)c(-c2ccc(F)nc2)c1Br"
  Post-emergence action against VIOTR in %: "80%"
- compound: "O=C(O)COc1nn(-c2ccccn2)c(-c2cncnc2)c1Br"
  Post-emergence action against VIOTR in %: "90%"
- compound: "CCOC(=O)COc1nn(-c2ncccc2C)c(-c2cncc(F)c2)c1Cl"
  Post-emergence action against VIOTR in %: "90%"
- compound: "COC(=O)C(C)COC(=O)COc1nn(-c2ncccc2F)c(-c2ccc(F)nc2)c1C1CC1 (centres unmarked)"
  Post-emergence action against VIOTR in %: "90%"
- compound: "COC(=O)C(C)COC(=O)[C@@H](C)Oc1nn(-c2ccccn2)c(-c2ccc(F)nc2)c1Cl (some centres unmarked)"
  Post-emergence action against VIOTR in %: "90%"
- compound: "CCOC(=O)COc1nn(-c2ccccn2)c(-c2ccc(F)nc2)c1Br"
  Post-emergence action against VIOTR in %: "90%"
